This collection of values is drawn from patent US20240279318A1.

- measured.target: T1, AFP158/HLA-A*02:01 complex (human)
- T1 construct: flowed as analyte in SPR
- assay.procedure: SPR, fold vs AS170036 VL1VH1;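 also: crude scFv muteins immobilised on a sensor chip, peptide–MHC complex passed over at several concentrations, binding then buffer-driven dissociation, KD estimated from on- and off-rates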
Measured Affinity increase values are reported for all entries that follow.
The reply should be a number in fold, with the unit left off.

1. AS170036 VL1VH1-57H98Q108S (scFv, also called 66-AS170036 VL1VH1-57H98Q108S) scFv: QSALTQPRSVSGSPGQSVTISCAGTSSDVGSENYVSWYQQHPGKAPKLMIYQVNKRASGVPDRFSGSKSGNTASLTISGLQAEDEADYYCASYRSSDQNIVFGGGTKLTVLGGGGSGGGGSGGGGSEVQLVESGGGLVQPGGSLRLSCAASGFTFSSYAMSWVRQAPGKGLEWVSTINSGTGHPYYADSVKGRFTISRDNSKNTLYLQMNSLRAEDTAVYYCAKNFFDGSWFLSPPAMDYWGQGTLVTVSSHHHHHH = 56.3

Fill blank: measured Affinity increase of the binder AS170036 VL1VH1-57M98Q108D (scFv, also called 83-AS170036 VL1VH1-57M98Q108D) scFv: QSALTQPRSVSGSPGQSVTISCAGTSSDVGSENYVSWYQQHPGKAPKLMIYQVNKRASGVPDRFSGSKSGNTASLTISGLQAEDEADYYCASYRSSDQNIVFGGGTKLTVLGGGGSGGGGSGGGGSEVQLVESGGGLVQPGGSLRLSCAASGFTFSSYAMSWVRQAPGKGLEWVSTINSGTGMPYYADSVKGRFTISRDNSKNTLYLQMNSLRAEDTAVYYCAKNFFDGSWFLDPPAMDYWGQGTLVTVSSHHHHHH is ____.
29.6

Consider the binder AS170036 VL1VH1 (scFv, Crude scFv from E. coli TG1 supernatant; also called AS170036 VL1VH1 scFv) scFv: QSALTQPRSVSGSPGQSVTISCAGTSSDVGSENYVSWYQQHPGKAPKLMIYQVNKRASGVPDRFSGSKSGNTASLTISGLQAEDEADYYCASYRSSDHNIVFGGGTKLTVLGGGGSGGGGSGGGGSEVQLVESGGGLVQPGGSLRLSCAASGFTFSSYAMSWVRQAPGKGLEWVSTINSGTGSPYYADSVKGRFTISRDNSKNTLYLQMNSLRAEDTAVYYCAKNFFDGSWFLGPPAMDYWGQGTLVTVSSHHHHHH and give its measured Affinity increase.
1
